Catalogue of pEC50 values
- Measurement target: GPR1 (Homo sapiens)
- Construct: expressed in transfected cells; host or cells: COS-7, transient
- Sequence (P46091 whole entry): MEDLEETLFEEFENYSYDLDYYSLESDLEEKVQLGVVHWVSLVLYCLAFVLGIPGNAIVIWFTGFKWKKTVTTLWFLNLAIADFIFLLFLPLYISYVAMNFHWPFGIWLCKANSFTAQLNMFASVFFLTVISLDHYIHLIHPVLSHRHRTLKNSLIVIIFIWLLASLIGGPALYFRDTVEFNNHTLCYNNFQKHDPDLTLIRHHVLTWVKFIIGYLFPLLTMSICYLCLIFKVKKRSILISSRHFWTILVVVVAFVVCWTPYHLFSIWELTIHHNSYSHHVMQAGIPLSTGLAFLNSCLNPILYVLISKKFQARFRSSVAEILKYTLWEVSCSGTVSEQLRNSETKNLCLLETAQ
- Sequence (P32120 whole entry partner): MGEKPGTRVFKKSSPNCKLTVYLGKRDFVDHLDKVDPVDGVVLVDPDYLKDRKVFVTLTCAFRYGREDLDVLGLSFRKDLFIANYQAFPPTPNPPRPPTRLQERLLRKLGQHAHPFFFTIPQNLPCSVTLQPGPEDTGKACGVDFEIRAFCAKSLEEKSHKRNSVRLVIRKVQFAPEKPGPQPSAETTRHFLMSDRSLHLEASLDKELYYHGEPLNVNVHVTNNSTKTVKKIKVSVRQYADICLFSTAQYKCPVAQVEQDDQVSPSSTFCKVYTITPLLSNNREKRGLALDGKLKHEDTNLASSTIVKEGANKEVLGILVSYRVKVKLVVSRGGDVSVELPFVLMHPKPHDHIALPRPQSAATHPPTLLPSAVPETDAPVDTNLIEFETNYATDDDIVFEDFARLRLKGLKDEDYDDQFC
- Assay notes: cell-based
Ends that are not written are not given here.
As a rule, pEC50 stands for the negative log10 of the concentration, concentration in M.

                      sequence_record  data_value
0   QRAGEDPHSFYFPGQFAF [Chem^139−156]        8.53
1  QRAGEDPHSFYFPGQFAFS [Chem^139−157]        8.51
2             YFPGQFAF [Chem^149−156]        8.40

Please look at the following sequence next.
Exercise: Which measured pEC50 value corresponds to FPGQFAFS [Chem^150−157] ?
Solution: 7.65
